- Assay: Stability experiments under 40° C.±2° C. and 75% R.H±5% R.H (accelerated test)
- Format: physicochemical
- Test Settings: month 6; 40° C./75% R.H

- Compound: "CC[C@@H]([C@H](C)OP(=O)(O)O)n1ncn(-c2ccc(N3CCN(c4ccc(OC[C@@H]5CO[C@@](Cn6cncn6)(c6ccc(F)cc6F)C5)cc4)CC3)cc2)c1=O [Example 3]"
  Description: "White"
- Compound: "CC[C@@H]([C@H](C)OP(=O)([O-])[O-])n1ncn(-c2ccc(N3CCN(c4ccc(OC[C@@H]5CO[C@@](Cn6cncn6)(c6ccc(F)cc6F)C5)cc4)CC3)cc2)c1=O.C[N+](C)(C)CCO.C[N+](C)(C)CCO [Comparative Example 1, Posaconazole Phosphate Bicholinate]"
  Description: "White"
- Compound: "CC[C@@H]([C@H](C)OP(=O)(O)O)n1ncn(-c2ccc(N3CCN(c4ccc(OC[C@@H]5CO[C@@](Cn6cncn6)(c6ccc(F)cc6F)C5)cc4)CC3)cc2)c1=O.CNC[C@H](O)[C@@H](O)[C@H](O)[C@H](O)CO [Comparative Example 4]"
  Description: "White"

* * *

- Assay: Stability experiments under 40° C.±2° C. and 75% R.H±5% R.H (accelerated test)
- Assay type: physicochemical
- Test Settings: month 0; 40° C./75% R.H

- Molecule: "CC[C@@H]([C@H](C)OP(=O)(O)O)n1ncn(-c2ccc(N3CCN(c4ccc(OC[C@@H]5CO[C@@](Cn6cncn6)(c6ccc(F)cc6F)C5)cc4)CC3)cc2)c1=O [Example 3]"
  Related substance [%]: 0.13
- Molecule: "CC[C@@H]([C@H](C)OP(=O)([O-])[O-])n1ncn(-c2ccc(N3CCN(c4ccc(OC[C@@H]5CO[C@@](Cn6cncn6)(c6ccc(F)cc6F)C5)cc4)CC3)cc2)c1=O.O.O.O.O.O.[Na+].[Na+]"
  Related substance [%]: 0.13
- Molecule: "CC[C@@H]([C@H](C)OP(=O)(O)O)n1ncn(-c2ccc(N3CCN(c4ccc(OC[C@@H]5CO[C@@](Cn6cncn6)(c6ccc(F)cc6F)C5)cc4)CC3)cc2)c1=O.CNC[C@H](O)[C@@H](O)[C@H](O)[C@H](O)CO"
  Related substance [%]: 0.13

* * *

- Assay: in vivo
- Test Settings: female, mouse, plasma, iv, 1 mg/kg
Assay Metric: concentration at 0.5 h (ng/mL)

- Compound: "CC[C@@H]([C@H](C)OP(=O)(O)O)n1ncn(-c2ccc(N3CCN(c4ccc(OC[C@@H]5CO[C@@](Cn6cncn6)(c6ccc(F)cc6F)C5)cc4)CC3)cc2)c1=O [Example 1, Posaconazole Phosphate Monocholinate]"
  Assay Metric: "concentration at 0.5 h"
  Value: 7040

* * *

# key: entry, value: Content
- Assay: Stability experiments under 25° C.±2° C. and 65% R.H±5% R.H
- Test Settings: month 9; 25° C./65% R.H

- Compound: "CC[C@@H]([C@H](C)OP(=O)([O-])[O-])n1ncn(-c2ccc(N3CCN(c4ccc(OC[C@@H]5CO[C@@](Cn6cncn6)(c6ccc(F)cc6F)C5)cc4)CC3)cc2)c1=O.O.O.O.O.O.[Na+].[Na+]"
  Content: "99.51%"
- Compound: "CCC(C(C)OP(=O)([O-])[O-])n1ncn(-c2ccc(N3CCN(c4ccc(OCC5COC(Cn6cncn6)(c6ccc(F)cc6F)C5)cc4)CC3)cc2)c1=O.C[N+](C)(C)CCO.C[N+](C)(C)CCO.O.O.O.O.O (stereo not shown)"
  Content: "99.75%"
- Compound: "CC[C@@H]([C@H](C)OP(=O)(O)O)n1ncn(-c2ccc(N3CCN(c4ccc(OC[C@@H]5CO[C@@](Cn6cncn6)(c6ccc(F)cc6F)C5)cc4)CC3)cc2)c1=O.CNC[C@H](O)[C@@H](O)[C@H](O)[C@H](O)CO"
  Content: "99.57%"
- Compound: "CC[C@@H]([C@H](C)OP(=O)(O)O)n1ncn(-c2ccc(N3CCN(c4ccc(OC[C@@H]5CO[C@@](Cn6cncn6)(c6ccc(F)cc6F)C5)cc4)CC3)cc2)c1=O [Example 1, Posaconazole Phosphate Monocholinate]"
  Content: "99.85%"
- Compound: "CC[C@@H]([C@H](C)OP(=O)(O)O)n1ncn(-c2ccc(N3CCN(c4ccc(OC[C@@H]5CO[C@@](Cn6cncn6)(c6ccc(F)cc6F)C5)cc4)CC3)cc2)c1=O [Example 3]"
  Content: "99.84%"
- Compound: "CC[C@@H]([C@H](C)OP(=O)([O-])[O-])n1ncn(-c2ccc(N3CCN(c4ccc(OC[C@@H]5CO[C@@](Cn6cncn6)(c6ccc(F)cc6F)C5)cc4)CC3)cc2)c1=O.C[N+](C)(C)CCO.C[N+](C)(C)CCO [Comparative Example 1, Posaconazole Phosphate Bicholinate]"
  Content: "99.77%"
- Compound: "CC[C@@H]([C@H](C)OP(=O)(O)O)n1ncn(-c2ccc(N3CCN(c4ccc(OC[C@@H]5CO[C@@](Cn6cncn6)(c6ccc(F)cc6F)C5)cc4)CC3)cc2)c1=O.N=C(N)NCCC[C@H](N)C(=O)O [Comparative Example 5, Posaconazole Phosphate Monoarginine Salt]"
  Content: "99.58%"

Origin of values: patent US20210147455A1
